target: RBD-FH, monomeric RBD (332-534) with a FLAG peptide and an 8xHis-tag at the C-terminus (SARS-CoV-2, UniProt P0DTC2 332-534)
experimental.readout: koff (s⁻¹)
The figure you give is taken to be in s⁻¹; do not add the unit.

Prompt: Value lookup for koff; key = hcAb 2.20 (Fc fusion, also called 2.20Fc; 2.20 hcAb) heavy: QVQLVESGGGSVQAGGSLRLSCAASGYTYNNYYMGWFRQAPGKEREGVAAINSDGLDTYVADSVKGRFTISRDNAKDTVHLQMNSLKPEDTAIYSCATGRTVYYSGYDFRLSVDDYWGQGTQVTVSS
Completion: 0.000233

Prompt: I am curious: what koff value has been reported for hcAb 2.11 (Fc fusion, also called 2.11Fc) heavy: QVQLVESGGGSVQAGGSLRLSCAASGDASNRKCVSWFRRAPGKEREGVALIFPVGSSTAYADSVKGRFTISQDSAKDTVYLQMNNLKPEDSGTYYCAAVSWGGRCNLETQTVTFWGQGTQVTVSS ?
Completion: 0.0003

Prompt: Report koff for hcAb 1.16 (Fc fusion, also called 1.16Fc) heavy: QVQLVESGGGSVQAGGSLRLSCAASGNTSKRKCVGWFRRAPGKEREGVTLIYTVGGSTVYADSVKGRFTISQDNAKDTVYLQMNSLKPEDSAMYYCAAESWGRQCNLETHRFTFWGQGTQVTVSS please.
Completion: 0.000438

Prompt: So what does the record say about koff for hcAb 1.29 (Fc fusion) heavy: QVQLVESGGGSVQAGGSLRLSCAASGYTINTDAVAWFRQAPGKGDERVAVIYTGSGNTNYADSVKGRFTISQDNAKNTVYLQMNSLKPEDTALYYCASGYYGASGYDFNNWGQGTQVTVSS ?
Completion: 0.000221

Prompt: What value of koff has been recorded for this entry: hcAb 1.26 (Fc fusion) heavy: QVQLVESGGGLVQAGGSLRLSCAATGYTWSSVCMGWFRQAPGKEREGVAGIPSGRNRPYYADSVKGRFTISQDNAKNAVFLLMNSLKPEDTAIYYCAPCSAPHDPEYNYWGQGTQVTVSS
Completion: 0.000148

Prompt: Tell me the measured koff of hcAb 2.1 (Fc fusion, also called 2.1Fc) heavy: QVQLVESGGGSVQAGGSLRLSCAAFGATISSAHMGWFRQAPGKEREGVAFRYTDGSSTYYTTSVRGRFTISQDNAKNTVYLQMNSLKPEDTAMYYCASNPSWGRLVGGQYNNWGQGTQITVSS , please.
Completion: 0.000281
